- tested system: T1, recombinant soluble human GARP-TGFβ1 complex (human, UniProt Q14392 20-628; P01137 30-390)
- T1 construct: co-expressed in HEK293E, purified by the Strep-Tag; TGFβ consists of LAP and mature TGFβ; also called shGARP-TGFβ; rhGARP-TGFβ
- T1 sequence (Q14392 other isoform, or with tags, fused parts or gaps limits assumed, chain 1 of 2): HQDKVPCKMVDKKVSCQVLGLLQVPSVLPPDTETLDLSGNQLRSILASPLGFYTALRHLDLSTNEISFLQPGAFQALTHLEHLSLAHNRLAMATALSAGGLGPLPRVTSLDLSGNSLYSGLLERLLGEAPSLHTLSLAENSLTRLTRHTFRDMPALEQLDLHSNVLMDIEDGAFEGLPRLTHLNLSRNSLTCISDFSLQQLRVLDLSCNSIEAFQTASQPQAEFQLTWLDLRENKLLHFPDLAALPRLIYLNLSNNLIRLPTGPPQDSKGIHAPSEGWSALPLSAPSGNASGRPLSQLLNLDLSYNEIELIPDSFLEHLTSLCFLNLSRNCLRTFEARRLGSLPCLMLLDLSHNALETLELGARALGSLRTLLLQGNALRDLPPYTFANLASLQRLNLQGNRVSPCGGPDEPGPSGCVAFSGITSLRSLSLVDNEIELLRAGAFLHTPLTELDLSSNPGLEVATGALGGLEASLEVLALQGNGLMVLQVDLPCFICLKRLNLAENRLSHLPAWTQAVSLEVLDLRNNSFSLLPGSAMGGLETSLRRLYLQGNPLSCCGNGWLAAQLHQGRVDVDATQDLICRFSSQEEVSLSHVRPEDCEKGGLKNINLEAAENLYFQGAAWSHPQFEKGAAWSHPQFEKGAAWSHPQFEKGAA
- T1 sequence (P01137 30-390 limits assumed, chain 2 of 2): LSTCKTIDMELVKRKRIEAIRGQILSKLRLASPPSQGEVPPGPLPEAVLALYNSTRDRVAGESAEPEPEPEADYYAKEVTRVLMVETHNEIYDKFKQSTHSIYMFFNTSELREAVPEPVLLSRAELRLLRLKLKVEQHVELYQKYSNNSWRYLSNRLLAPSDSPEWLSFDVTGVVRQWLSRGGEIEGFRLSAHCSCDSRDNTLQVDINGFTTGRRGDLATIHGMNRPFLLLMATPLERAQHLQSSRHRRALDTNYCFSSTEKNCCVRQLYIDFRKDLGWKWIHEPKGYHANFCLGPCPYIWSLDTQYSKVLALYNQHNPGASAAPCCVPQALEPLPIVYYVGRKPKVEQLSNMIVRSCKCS
- assay protocol: SPR (Biacore), hGARP-TGFβ1 immobilised
Reported fold improvement of kd (reference LHG-10-D) by item:
// return numeric value only (unit: fold, not printed)

## Input Give recorded fold improvement of kd (reference LHG-10-D). LHG-10-D (antibody, human IgG1, V domains shown) VH: EVQLVQPGAELRNSGASVKVSCKASGYRFTSYYIDWVRQAPGQGLEWMGRIDPEDGGTKYAQKFQGRVTFTADTSTSTAYVELSSLRSEDTAVYYCARNEWETVVVGDLMYEYEYWGQGTQVTVSS VL: DIQMTQSPTSLSASLGDRVTITCQASQSISSYLAWYQQKPGQAPKLLIYGASRLQTGVPSRFSGSGSGTSFTLTISGLEAEDAGTYYCQQYDSLPVTFGQGTKVELK
## Output 1
